Test Target: human 15-PGDH (Homo sapiens)
Construct: comprising residues 3–256 of the human HPGD gene (GenBank identifier: 1203982); His6 (GHHHHHH, behind the TEV site) (C, cleaved yes); made in house; host or cells: E. coli BL21(DE3)-R3
Sequence (P15428 3-256): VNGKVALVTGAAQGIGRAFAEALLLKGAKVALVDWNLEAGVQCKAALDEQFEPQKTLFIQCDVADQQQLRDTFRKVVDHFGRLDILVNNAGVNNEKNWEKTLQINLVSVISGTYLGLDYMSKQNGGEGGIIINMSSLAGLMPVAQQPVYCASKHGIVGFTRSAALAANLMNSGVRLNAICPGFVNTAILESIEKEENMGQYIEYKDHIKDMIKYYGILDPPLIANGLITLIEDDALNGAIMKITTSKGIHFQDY
Assay Summary: qHTS and 24-point re-test: fluorescence assay of NAD+ reduction to NADH on PGE2 oxidation (PubChem AID 894)
Type: biochemical
Test Conditions: potency in 24-point titrations on re-test; 20 nM 15-PGDH, 1 mM NAD+, 30 µM PGE2, pH 8.0; read-out: qHTS IC50
pIC50: −log10 of the molar value.
Catalogue of pIC50 values
Reported Metric: pIC50

- CC(C)CC=NCCCCCCN=CCC(C)C: 5.90
- COc1ccc(OC)c(C=Cc2ccc(N3C(=O)C4CC=C5C(c6cc(Br)c(O)c(OC)c6)C6=C(CC5C4C3=O)C(=O)C=C(C)C6=O)cc2)c1 (stereo not drawn): 4.80
- COC(=O)CSc1nc2cc(Br)c(C)nc2[nH]1: 4.80
- CCc1nc(N2CCN(C(=O)c3ccco3)CC2)c(C#N)c2c1COC(C)(C)C2: 5.50
- Cc1ccc(-c2nnc(S)n2N=CC=Cc2ccccc2[N+](=O)[O-])cc1: 6.30
- COC(=O)c1cc(CNC(=O)C2(c3ccc(Cl)cc3)CC2)ccc1OC: 6.65
- CCNC(=O)c1ccc(CSc2ccc(Cl)cc2)cc1: 5.40
- CNC(C)C(O)c1ccccc1.O=S(=O)(O)O (stereo not drawn): 5.85
- Cc1cc(NC(=O)COC(=O)c2cccc(S(=O)(=O)NC(C)(C)C)c2)no1: 6.65
- COCCNC(=O)c1cc2oc3ccccc3c2n1C: 5.80
- O=C(O)c1ccc(Cl)c(Cl)c1Br: 4.85
- O=C(CSc1n[nH]c(-c2ccccc2)n1)Nc1ncc(Br)cc1Br: 5.85
- Cc1ccccc1OCc1nnc(SCC(N)=O)o1: 6.80
- CCCC(NC(=O)Cn1c(-c2cccs2)n[nH]c1=S)c1ccccc1 (stereo not drawn): 5.65
- CC(O)CN(C)C(C)N(CCN(C)C)CCN(C)C (stereo not drawn): 6.00
- C=C(C(=O)OC)C1CCC2(C)C(OC(=O)C(Cc3ccc(O)cc3)OC(=O)C(O)C(C)C)CCC(O)(COC3OC(CO)C(O)C(O)C3O)C2C1O (stereo not drawn): 6.10
- CCCCCCCCCOC(=O)c1ccc2c(c1)N(CCCS(=O)(=O)O)/C(=C\C=C\c1n(CCCS(=O)(=O)O)c3cc(C(=O)OCCCCCCCCC)ccc3[n+]1CC)N2CC: 6.35
- C=C[C@@]1(C)CCCC[C@H]1CC#CCCCC: 7.20
- O=C(NCCc1ccc(Cl)cc1)C1CCC(CNc2c(N3CCCCC3)c(=O)c2=O)CC1 (stereo not drawn): 4.75
- N#Cc1c(NC(=O)COC(=O)C23CC4CC(CC(C4)C2)C3)sc2c1CCCCC2: 5.60
- Cc1cc(=O)oc2cc(OCC(=O)N3CCCc4ccccc43)ccc12: 5.95
- CCCCc1ccc(NC(=O)C2=CN3CCS(=O)(=O)N=C3C=C2)cc1: 6.40
- COc1ccc(NS(=O)(=O)Cc2ccccc2Cl)cc1: 6.50
- Brc1ccc(-c2cc3n(n2)CCc2nc4ccccc4n2-3)cc1: 5.95
